binders and their reported scatter score 0-4, HPAF-II, 3.000 nM
target: native human MET on living cells (human, UniProt P08581 25-1390); experiment: cell-based or functional assay
Sequence (P08581 25-1390): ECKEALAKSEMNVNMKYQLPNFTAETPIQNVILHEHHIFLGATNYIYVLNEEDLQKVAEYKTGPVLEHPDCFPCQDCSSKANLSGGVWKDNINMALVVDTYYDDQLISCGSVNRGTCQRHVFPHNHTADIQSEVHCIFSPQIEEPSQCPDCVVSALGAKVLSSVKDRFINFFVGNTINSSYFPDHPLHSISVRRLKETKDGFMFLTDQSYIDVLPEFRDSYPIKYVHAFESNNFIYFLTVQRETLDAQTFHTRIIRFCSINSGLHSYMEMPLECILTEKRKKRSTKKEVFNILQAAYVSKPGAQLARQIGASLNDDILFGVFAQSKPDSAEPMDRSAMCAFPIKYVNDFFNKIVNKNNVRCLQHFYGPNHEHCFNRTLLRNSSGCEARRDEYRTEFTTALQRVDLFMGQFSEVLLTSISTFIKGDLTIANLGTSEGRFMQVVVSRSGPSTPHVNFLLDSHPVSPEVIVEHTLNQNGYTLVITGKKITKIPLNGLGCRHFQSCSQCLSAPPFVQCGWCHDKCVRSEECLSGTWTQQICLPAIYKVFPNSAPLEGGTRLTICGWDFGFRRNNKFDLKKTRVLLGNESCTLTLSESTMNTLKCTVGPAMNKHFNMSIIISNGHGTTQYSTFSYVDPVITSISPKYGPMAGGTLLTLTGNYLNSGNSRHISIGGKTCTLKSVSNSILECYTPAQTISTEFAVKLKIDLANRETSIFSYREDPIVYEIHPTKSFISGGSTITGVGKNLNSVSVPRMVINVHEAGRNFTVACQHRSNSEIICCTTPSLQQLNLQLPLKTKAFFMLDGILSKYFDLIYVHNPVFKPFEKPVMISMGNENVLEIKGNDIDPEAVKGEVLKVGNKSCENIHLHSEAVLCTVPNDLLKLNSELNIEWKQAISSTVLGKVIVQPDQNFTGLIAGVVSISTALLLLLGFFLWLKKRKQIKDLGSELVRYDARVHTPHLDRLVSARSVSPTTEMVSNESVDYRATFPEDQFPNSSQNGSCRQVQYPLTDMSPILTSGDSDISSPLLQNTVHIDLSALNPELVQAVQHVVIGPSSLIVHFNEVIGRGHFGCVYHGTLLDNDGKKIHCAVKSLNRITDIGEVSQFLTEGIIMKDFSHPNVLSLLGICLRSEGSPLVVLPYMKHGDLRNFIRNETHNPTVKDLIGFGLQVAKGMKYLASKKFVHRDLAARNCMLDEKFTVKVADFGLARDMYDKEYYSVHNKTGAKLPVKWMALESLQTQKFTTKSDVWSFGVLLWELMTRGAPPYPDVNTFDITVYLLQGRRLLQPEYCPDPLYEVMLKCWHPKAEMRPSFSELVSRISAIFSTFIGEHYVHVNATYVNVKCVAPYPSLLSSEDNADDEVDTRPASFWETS
Hi! Could you send only the number? It should be in score, unit omitted.

Reported scatter score 0-4, HPAF-II, 3.000 nM, binder 71G2 chimeric llama-human IgG1 mAb (antibody, V domains shown, llama VH on human IgG1 CH1-CH2-CH3, llama VL on human lambda CL) VH: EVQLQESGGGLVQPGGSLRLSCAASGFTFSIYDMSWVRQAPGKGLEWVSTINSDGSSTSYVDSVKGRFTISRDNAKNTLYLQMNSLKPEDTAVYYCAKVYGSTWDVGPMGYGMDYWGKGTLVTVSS VL: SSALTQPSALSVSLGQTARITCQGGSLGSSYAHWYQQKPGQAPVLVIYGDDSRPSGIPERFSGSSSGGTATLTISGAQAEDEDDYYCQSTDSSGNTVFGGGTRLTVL : ____ 4

Query (binder): 71D6 chimeric llama-human IgG1 mAb (antibody, V domains shown, llama VH on human IgG1 CH1-CH2-CH3, llama VL on human lambda CL) VH: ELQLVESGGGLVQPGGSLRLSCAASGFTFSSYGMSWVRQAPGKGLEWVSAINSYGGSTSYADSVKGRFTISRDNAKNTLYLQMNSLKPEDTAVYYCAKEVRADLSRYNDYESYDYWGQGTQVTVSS VL: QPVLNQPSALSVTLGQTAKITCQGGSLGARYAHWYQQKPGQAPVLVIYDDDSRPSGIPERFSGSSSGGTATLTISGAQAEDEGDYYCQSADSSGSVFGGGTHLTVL ; field requested: scatter score 0-4, HPAF-II, 3.000 nM 4

Item under review: 71A3 chimeric llama-human IgG1 mAb (antibody, V domains shown, llama VH on human IgG1 CH1-CH2-CH3, llama VL on human lambda CL) VH: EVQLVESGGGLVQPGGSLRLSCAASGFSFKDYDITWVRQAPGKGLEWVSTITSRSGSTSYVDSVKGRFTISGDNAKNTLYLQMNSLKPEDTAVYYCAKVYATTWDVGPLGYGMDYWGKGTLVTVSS VL: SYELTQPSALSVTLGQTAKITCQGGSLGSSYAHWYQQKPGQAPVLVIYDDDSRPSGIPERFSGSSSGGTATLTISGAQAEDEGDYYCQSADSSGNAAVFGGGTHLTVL . Reported scatter score 0-4, HPAF-II, 3.000 nM? 4
